tested on: Mäuse; assay: Mortality of mice after repeated intravenous injections, 42-day observation; conditions: 30 daily i.v. injections, 5 consecutive days per block, 4 blocks, 2 treatment-free days between, Amphotericin B 4 mg/kg, xanthine derivatives 20 mg/kg each, dissolved in 5 % aqueous glucose solution
Mortalitäten nach einer Beobachtungszeit von 42 Tagen by entry:
Record the value in von 25 Mäusen gestorben, omitting the unit from your answer.

Worked cases, answers included:
Value of Mortalitäten nach einer Beobachtungszeit von 42 Tagen reported for the compound `CC(=O)CCCCn1c(=O)c2c(ncn2C)n(C)c1=O` is 0

The compound `Cn1c(=O)n(CCCCC(C)(C)O)c(=O)c2[nH]cnc21` showed Mortalitäten nach einer Beobachtungszeit von 42 Tagen equal to 0

Next compound, Mortalitäten nach einer Beobachtungszeit von 42 Tagen to be filled in.
The value of Mortalitäten nach einer Beobachtungszeit von 42 Tagen measured for the compound `CCOCn1cnc2c1c(=O)n(CCCCC(C)(C)O)c(=O)n2C` turned out to be 0

Entry source: patent EP0414175A2
